target: full-length human PLD2 (Homo sapiens (Human)); assay: Evaluation of human PLD2 enzyme inhibitory activity (Amplex Red / choline oxidase fluorescence); format: biochemical; details: full-length human PLD2 enzyme; read-out: PLD2 IC50
Sequence (O14939 whole entry): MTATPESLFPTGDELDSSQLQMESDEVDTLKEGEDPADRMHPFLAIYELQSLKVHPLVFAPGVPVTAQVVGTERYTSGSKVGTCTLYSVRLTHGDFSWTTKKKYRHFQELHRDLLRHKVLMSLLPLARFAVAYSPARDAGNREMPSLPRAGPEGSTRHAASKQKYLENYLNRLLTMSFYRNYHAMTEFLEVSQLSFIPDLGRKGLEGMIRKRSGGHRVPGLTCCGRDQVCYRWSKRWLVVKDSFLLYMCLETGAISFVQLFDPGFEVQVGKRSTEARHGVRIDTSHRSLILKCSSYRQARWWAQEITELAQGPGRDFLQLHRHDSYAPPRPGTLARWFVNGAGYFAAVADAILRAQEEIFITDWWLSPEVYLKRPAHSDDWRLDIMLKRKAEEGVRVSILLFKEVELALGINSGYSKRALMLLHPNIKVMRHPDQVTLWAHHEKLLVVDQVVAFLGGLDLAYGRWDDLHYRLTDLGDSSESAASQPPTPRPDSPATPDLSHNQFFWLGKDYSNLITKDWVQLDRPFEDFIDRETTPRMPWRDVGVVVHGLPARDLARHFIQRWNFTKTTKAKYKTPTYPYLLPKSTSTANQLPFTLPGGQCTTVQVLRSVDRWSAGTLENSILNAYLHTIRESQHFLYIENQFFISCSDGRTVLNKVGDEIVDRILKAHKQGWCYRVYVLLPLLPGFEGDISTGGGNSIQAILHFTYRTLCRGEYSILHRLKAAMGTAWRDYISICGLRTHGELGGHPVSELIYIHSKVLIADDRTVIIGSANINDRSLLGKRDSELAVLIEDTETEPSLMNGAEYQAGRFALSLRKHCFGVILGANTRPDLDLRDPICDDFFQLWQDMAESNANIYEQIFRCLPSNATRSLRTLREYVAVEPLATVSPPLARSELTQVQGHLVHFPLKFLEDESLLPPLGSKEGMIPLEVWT
pIC50: −log10 of the molar value.
Consider the following molecules and their measured pIC50 readings.
METRIC: pIC50

[[record]]
chemical_smiles = "C[C@@H](C[C@H]1CC[C@]2(CC1)OC(=O)NN=C2c1ccc(OCC(C)(C)O)cc1Br)NC(=O)c1cc(Cl)no1"
value_reported = "> 8.00"

[[record]]
chemical_smiles = "CNC(=O)/C=C\\C(=O)N[C@@H](C)CN1CCC2(CC1)OC(=O)NN=C2c1cc(C#N)ccc1Br"
value_reported = 6.97

[[record]]
chemical_smiles = "[2H]C([2H])([C@H](C)NC(=O)c1cnn(C)c1)N1CCC2(CC1)OC(=O)NN=C2c1ccc(F)cc1Br"
value_reported = "> 8.00"


----------
Consider the following molecules and their measured IC50 readings.
target: full-length human PLD2 (Homo sapiens (Human)); assay: Evaluation of human PLD2 enzyme inhibitory activity (Amplex Red / choline oxidase fluorescence); type: biochemical; details: full-length human PLD2 enzyme; read-out: PLD2 IC50
METRIC: IC50

[[record]]
molecule = "Cc1cc(C(=O)N[C@@H](C)C[C@H]2CC[C@]3(CC2)OC(=O)NN=C3c2cccc(OC(F)F)c2Br)[nH]n1 [Example 307]"
assayed_system = "full-length human PLD2 (Homo sapiens (Human))"
metric = "IC50"
value_reported = "< 10 nM"

[[record]]
molecule = "CNC(=O)C(=O)N[C@@H](C)CN1CCC2(CC1)OC(=O)NN=C2c1cc(C(=O)OC)ccc1Br [Example 2-033]"
assayed_system = "full-length human PLD2 (Homo sapiens (Human))"
metric = "IC50"
value_reported = "< 10 nM"

[[record]]
molecule = "CNC(=O)C(=O)N[C@@H](C)C[C@]1(C#N)CC[C@@]2(CC1)OC(=O)NN=C2c1cccc(C(F)(F)F)c1Br [Example 2-076]"
assayed_system = "full-length human PLD2 (Homo sapiens (Human))"
metric = "IC50"
value_reported = "< 10 nM"

[[record]]
molecule = "CNC(=O)C(=O)N[C@@H](C)C[C@H]1CC[C@]2(CC1)OC(=O)NN=C2c1cc(C#N)ccc1C [Example 287]"
assayed_system = "full-length human PLD2 (Homo sapiens (Human))"
metric = "IC50"
value_reported = "< 10 nM"

[[record]]
molecule = "COc1cc(C)c(C2=NNC(=O)O[C@]23CC[C@@H](C[C@H](C)NC(=O)OCc2ccccc2)CC3)cn1 [Example 262]"
assayed_system = "full-length human PLD2 (Homo sapiens (Human))"
metric = "IC50"
value_reported = "< 10 nM"

[[record]]
molecule = "CNC(=O)C(=O)N[C@@H](C)C[C@H]1CC[C@]2(CC1)OC(=O)NN=C2c1ccc(C(C)(C)O)cc1Br [Example 96]"
assayed_system = "full-length human PLD2 (Homo sapiens (Human))"
metric = "IC50"
value_reported = "< 10 nM"

[[record]]
molecule = "CNC(=O)C(=O)N[C@@H](C)C[C@H]1CC[C@]2(CC1)OC(=O)NN=C2c1ccc(OC(F)F)cc1Br [Example 140]"
assayed_system = "full-length human PLD2 (Homo sapiens (Human))"
metric = "IC50"
value_reported = "< 10 nM"

[[record]]
molecule = "CNC(=O)C(=O)N[C@@H](C)C[C@H]1CC[C@]2(CC1)OC(=O)NN=C2c1cc(C#N)ccc1Br [Example 198]"
assayed_system = "full-length human PLD2 (Homo sapiens (Human))"
metric = "IC50"
value_reported = "< 10 nM"

[[record]]
molecule = "C[C@@H](C[C@H]1CC[C@]2(CC1)OC(=O)NN=C2c1ccc(C#N)cc1Br)NC(=O)N1Cc2ccccc2C1 [Example 109]"
assayed_system = "full-length human PLD2 (Homo sapiens (Human))"
metric = "IC50"
value_reported = "< 10 nM"

[[record]]
molecule = "CNC(=O)C(=O)N[C@@H](C)C[C@]1(O)CC[C@@]2(CC1)OC(=O)NN=C2c1ccc(F)cc1Br [Example 321]"
assayed_system = "full-length human PLD2 (Homo sapiens (Human))"
metric = "IC50"
value_reported = "< 10 nM"

[[record]]
molecule = "C[C@@H](C[C@H]1CC[C@]2(CC1)OC(=O)NN=C2c1cccc(OC(F)F)c1Br)NC(=O)C(=O)NC1CC1 [Example 308]"
assayed_system = "full-length human PLD2 (Homo sapiens (Human))"
metric = "IC50"
value_reported = "< 10 nM"

[[record]]
molecule = "C[C@@H](C[C@H]1CC[C@]2(CC1)OC(=O)NN=C2c1ccc(S(C)(=O)=O)cc1Br)NC(=O)c1cc(Cl)no1 [Example 48]"
assayed_system = "full-length human PLD2 (Homo sapiens (Human))"
metric = "IC50"
value_reported = "< 10 nM"

[[record]]
molecule = "CNC(=O)C(=O)N[C@@H](C)C[C@H]1CC[C@]2(CC1)OC(=O)NN=C2c1ccccc1C [Example 119]"
assayed_system = "full-length human PLD2 (Homo sapiens (Human))"
metric = "IC50"
value_reported = "< 10 nM"

